# Tested system: protein Z (PZ)
# Construct: single band ~40 kDa; three Trp printed (Trp-150, Trp-186, Trp-257)
# Assay text: Trp fluorescence quenching titration
# Condition description: 50.0 mM sodium citrate pH 4.2, 25 °C; 1.0 μM PZ; n = 22.11 ± 2.13 sites per PZ; read-out: K
Reported property: Kd (µM)
Reply with just the number (in µM).

Return the recorded Kd value; entry: `COc1cc(/C=C/C(=O)O)ccc1O`
2

Where do these numbers come from? They come from paper PMC9857996.
